Test system: U2OS
Assay: Incucyte cell viability with U2OS; also: unitless GR value; below 1 slowed growth and below 0 cell loss
Format: toxicity, cell-based
Settings: human, 0 h, 10 µM, compound concentration 10 uM, replicate number 1, timepoint 0 hours
Entries get a class label from measured Growth Rate. See ranges: bottom bin (below -0.4), middle bin (-0.4 to below 0.6), top bin (0.6 or more)

Entry CC(C)Oc1ccc(-c2c[nH]cc2CN(C)CCO)cc1 belongs to which category?
bottom bin

Queued: CC(=O)c1cc(-c2ccccc2OCC2CC2)c2ncccn12
top bin

Also need CN1CCC(c2c[nH]c3ccc(O)cc23)CC1 , thanks.
top bin

Next compound: Nc1nc(-c2ccco2)c2cnn(Cc3ccccc3F)c2n1
bottom bin

Same again, this time with CCC(C)n1ncn(-c2ccc(N3CCN(c4ccc(OC[C@@H]5CO[C@@](Cn6cncn6)(c6ccc(Cl)cc6Cl)O5)cc4)CC3)cc2)c1=O.CCC(C)n1ncn(-c2ccc(N3CCN(c4ccc(OC[C@H]5CO[C@](Cn6cncn6)(c6ccc(Cl)cc6Cl)O5)cc4)CC3)cc2)c1=O (some centres undefined)
middle bin

Note, next up: CC[C@@]1(O)C(=O)OCc2c1cc1n(c2=O)Cc2cc3ccccc3nc2-1
middle bin

Likewise for O=C(CCCc1ccccc1)Nc1nc2ccccc2c(=O)s1 ?
middle bin

How about CNCCN1CCC(c2cc(CN(C)C(=O)c3cccc(Oc4ccccc4)c3)ccn2)CC1 ?
middle bin

----------
System: Fibroblast
Experiment: Incucyte cell viability with human fibroblast; also: unitless GR value; below 1 slowed growth and below 0 cell loss
Type: toxicity, cell-based
Details: 18 h, 10 µM, compound concentration 10 uM, replicate number 2, timepoint 18 hours
Below is a list of entries, each paired with its recorded Growth Rate value.
Give only the figure.

What measured Growth Rate goes with Cc1cc(Cn2cnc3c2C[C@@H](C(=O)O)N(C(=O)C(c2ccccc2)c2ccccc2)C3)ccc1N(C)C ?
0.97

Another: CC(C)(O)C(=O)N1CCN(c2ccc(C(F)(F)F)c(C3=C(c4c[nH]c5ccccc45)C(=O)NC3=O)c2)CC1
-0.06

Query Cc1cc(OCCCS(C)(=O)=O)cc(C)c1-c1cccc(COc2ccc3c(c2)OC[C@H]3CC(=O)O)c1 next
0.31

Try this compound next: CC(C)c1c(NC(=O)Nc2ccc(Cl)cc2)c(=O)n(-c2ccccc2)n1C
0.54

----------
Tested on: Fibroblast
Test: Incucyte cell viability with human fibroblast; also: unitless GR value; below 1 slowed growth and below 0 cell loss
Format: toxicity, cell-based
Conditions: 12 h, 10 µM, compound concentration 10 uM, replicate number 2, timepoint 12 hours
Where a SMILES comes first, the peptide text is derived from it. [ ]: non-standard residue; d: D form.
Listing of entries alongside the reported Growth Rate.
Answer field: number only, no words.

Lab note: need Growth Rate with Fibroblast for entry O=C(NCCN1CCC(n2c(=O)[nH]c3cc(Cl)ccc32)CC1)c1ccc(F)cc1 [HALOPEMIDE] , please look it up.
0.66

# repeat for Cn1cc(C(=O)OCC2CCN(CCNS(C)(=O)=O)CC2)c2ccccc21
0.4

Next: CCc1nc2c(C)cc(C)nc2[nH]1
0.69

Let us now turn to CC(C)COc1ccc(CNC(=O)N(Cc2ccc(F)cc2)C2CCN(C)CC2)cc1 [PIMAVANSERIN]
-0.05

// same read-out, input: Cc1ccccc1N1CCN(S(=O)(=O)C[C@]23CC[C@H](C[C@@H]2NC(=O)[C@@H](N)CCS(C)(=O)=O)C3(C)C)CC1.Cl
0.8

***
Entry CC(C)c1cc(Oc2c(Cl)cc(-n3nc(C#N)c(=O)[nH]c3=O)cc2Cl)n[nH]c1=O [RESMETIROM] , system Fibroblast: what Growth Rate was measured?
0.74

Try CC(C)C[C@@H]1NC(=O)[C@@H](C(C)C)NC(=O)[C@@H]2CCCN2C(=O)[C@@H](CC(=O)O)NC(=O)[C@@H](Cc2c[nH]c3ccccc23)NC1=O [BQ-123] (cyclo(L[dW][dD]P[dV])) next.
0.89

Follow-up entry: O=C(NCCO)c1cccc(-c2cc(Nc3ccc(OC(F)(F)F)cc3)ncn2)c1
0.04

Ok, now S=C(NCCCc1c[nH]cn1)NCCCN(Cc1ccc(Cl)c(Cl)c1)c1ccc(Br)cn1
0.18

Same for CCOc1c2c(c(OCC)c3ncccc13)CN(c1ccc(CS(=O)(=O)NC(=O)Cc3ccccc3OC)cc1C)C2=O
-0.12

----------
Tested on: Fibroblast
Assay: Incucyte cell viability with human fibroblast; also: unitless GR value; below 1 slowed growth and below 0 cell loss
Type: toxicity, cell-based
Settings: 12 h, 10 µM, compound concentration 10 uM, replicate number 2, timepoint 12 hours
Listed compounds paired with reported Growth Rate
Number only, please.

Fill blank: measured Growth Rate of the compound CC(=O)Nc1cccc2c1c(Sc1ccc(Cl)cc1)c(C)n2CC(=O)O is ____.
0.14

Continuing:
Given the compound c1cc(OCCCN2CCCCC2)ccc1CN1CCCCC1 , what is its reported Growth Rate?
0.6

Subsequent entry: CC[C@@H](C)Nc1nc(C)nc2c(-c3ccc(OC)nc3C)c(C)nn12
0.49

Further, for COc1cc2c(Oc3ccc(NC(=O)C4(C(=O)Nc5ccc(F)cc5)CC4)cc3F)ccnc2cc1OCCCN1CCOCC1 ?
-0.95

Now consider O=C(Nc1cc(-c2cn[nH]c2)ccc1N1CCOCC1)c1ccc(-c2ccc3ncccc3c2)o1 and answer again.
0.89

Also need Cn1cc(-c2ccc3occ(-c4cccc(-c5ccncc5)c4)c3n2)cn1 , thanks.
-0.62

Check CSc1ccccc1N1CCN(CCCCCC(=O)NC2CCCc3ccccc32)CC1.Cl (centres undefined) too.
0.26

Next compound: O=C(O)C(F)(F)F.O=C1NC(=O)/C(=C/c2c[nH]c(=O)c(-c3ccc(N4CCNCC4)nc3)c2)S1
0.66

Another: NC(=O)c1cc2c(-c3ccc(C(=O)NCc4ccnc(Cl)c4)s3)cccc2s1
-0.62

----------
Test system: Fibroblast
Assay: Incucyte cell viability with human fibroblast; also: unitless GR value; below 1 slowed growth and below 0 cell loss
Format: toxicity, cell-based
Conditions: 18 h, 10 µM, compound concentration 10 uM, replicate number 1, timepoint 18 hours
*1 amine or outer side, *2 acyl side, *3 side chain or, on linkers, in order; H or OH if unused. Where a SMILES comes first, the peptide text is derived from it. Bridges are numbered along the chain shown (N, C = ends). X1 = O=C(CCC[*:2])[*:1]
value_kind: Growth Rate
Reply with just the number.

Below: 6 molecules and their reported Growth Rate.
Item CC[C@H](C)[C@@H]1NC(=O)[C@H](Cc2ccc(OC)cc2)NC(=O)CCCSC[C@@H](C(=O)N2CCC[C@H]2C(=O)N[C@@H](CC(C)C)C(=O)NCC(N)=O)NC(=O)[C@H](CC(N)=O)NC(=O)[C@H](CCC(N)=O)NC1=O [CARBETOCIN] (Y(Me)IQNCPLG-NH2; linker N-5 via X1) has what recorded Growth Rate?
0.85

Next entry: COc1ccncc1C(=O)NC(=O)Nc1ccc(-c2ccccc2)c(C(F)(F)F)c1
0.7

Same again, this time with O=C(Nc1cc(-c2cn[nH]c2)ccc1N1CCOCC1)c1ccc(-c2ccc3ncccc3c2)o1
0.43

Would you mind doing CNCCN1CCC(c2cc(CN(C)C(=O)c3cccc(Oc4ccccc4)c3)ccn2)CC1 as well?
0.55

Note, next up: CNc1nc(NCc2ncccn2)c2c(-c3ccc4ncccc4c3)c[nH]c2n1
-0.14

Lookup OCCCNc1cc(-c2ccnc(Nc3cccc(Cl)c3)n2)ccn1
-0.2

Next:
// returns reported Growth Rate for input CC(C)n1cc(-c2ccc(N3CCN(C)CC3)c(NC(=O)c3ccc(-c4ccncc4)o3)c2)cn1
-0.06

Now consider CC(C)N(CCCCOCC(=O)NS(C)(=O)=O)c1cnc(-c2ccccc2)c(-c2ccccc2)n1 and answer again.
0.76

Same question, C(#Cc1cccc(CN2CCOCC2)c1)CCN1CCCCC1 this time
0.39

Then what about the molecule CCc1cc2cc(NS(=O)(=O)c3ccc(C#N)cc3)ccc2n(CC)c1=O ?
0.07

----------
Below, each of the compounds is paired with its reported Growth Rate value.
Tested on: Fibroblast
Assay: Incucyte cell viability with human fibroblast; also: unitless GR value; below 1 slowed growth and below 0 cell loss
Assay type: toxicity, cell-based
Conditions: 6 h, 10 µM, compound concentration 10 uM, replicate number 2, timepoint 6 hours
Please give the numeric answer without any surrounding text.

Here are 4 compounds together with their reported answers.
What value of measured Growth Rate is listed for COc1ccc(CN(CCN(C)C)c2ccccn2)cc1 ?
0.26

Now the same for CC(C)Oc1ccc(Cc2ccc(NC3=NCCN3)cc2)cc1
-0.09

Now try Cc1cccc(S(=O)(=O)N(C)[C@H](C)CCN2CCC(C)CC2)c1.Cl .
0.52

What do you get for Cc1cc(=O)n(C)c2cc(N3C(=O)CC[C@H](NS(=O)(=O)CC(C)C)[C@H]3c3ccc(Cl)cc3)ccc12 ?
-0.68

Field: next compound
State the recorded Growth Rate for this entry: CCCN[C@H]1CCc2nc(N)sc2C1.Cl.Cl
0.73

----------
Test system: HEK-293T
Assay: Incucyte cell viability with HEK293T; also: unitless GR value; below 1 slowed growth and below 0 cell loss
Format: toxicity, cell-based
Conditions: human, 12 h, 10 µM, compound concentration 10 uM, replicate number 1, timepoint 12 hours
Reported Growth Rate values follow for various compounds
Please respond with just the number, no unit label.

May I ask what Growth Rate has been recorded for O=C(O)c1ccccc1S(=O)(=O)NCCCCN1C(=O)c2cccc3cccc(c23)C1=O ?
0.9

Next entry: Cc1sc2c(c1C)C(c1ccc(Cl)cc1)=N[C@@H](CC(=O)NCCCCCCCCNC(=O)COc1cccc3c1C(=O)N(C1CCC(=O)NC1=O)C3=O)c1nnc(C)n1-2 (some centres undefined)
0.13

For CC(=O)NCCc1c(Cc2ccccc2)[nH]c2ccccc12 then?
0.96

Pending compound:
Name the recorded Growth Rate for CO[C@H]1CNC[C@@H](OCC2CCC(F)(F)CC2)[C@@H]1Nc1ncc(-c2cncc(C)c2)c2cc(C)c(=O)[nH]c12 .
0.87
